src = the supplement of paper PMC9112550

- Tested on: Escherichia coli TOP10
- assayComment: shrunken log2 fold change of peptide-encoding DNA abundance (4.5 h post-induction vs induction); higher = less antimicrobial activity (less host growth inhibition)
- setupConditions: time post-induction: 4.5 h; library: site-saturation at positions 5, 18, 19, 20
Entries are grouped by shrunken log2 fold change into these classes: b0 (below -0.1), b1 (-0.1 to below 0.2), b2 (0.2 or more)

1) RRIRPRPPRLPRPRPRPMRYPRP
b1
2) RRIRIRPPRLPRPRPRPLRGPRP
b2
3) RRIRTRPPRLPRPRPRPAEQPRP
b1
4) RRIRKRPPRLPRPRPRPKKRPRP
b2
5) RRIRKRPPRLPRPRPRPYWTPRP
b0
6) RRIRVRPPRLPRPRPRPMYPPRP
b0
7) RRIRNRPPRLPRPRPRPHPYPRP
b0
8) RRIRWRPPRLPRPRPRPKNDPRP
b1
9) RRIRFRPPRLPRPRPRPEAGPRP
b2
10) RRIRKRPPRLPRPRPRPMLQPRP
b1
11) RRIRPRPPRLPRPRPRPYAVPRP
b0
12) RRIRPRPPRLPRPRPRPHSKPRP
b0
13) RRIRGRPPRLPRPRPRPALKPRP
b2
14) RRIRERPPRLPRPRPRPGDLPRP
b1
15) RRIRNRPPRLPRPRPRPGFTPRP
b1
16) RRIRRRPPRLPRPRPRPEVAPRP
b2
17) RRIRARPPRLPRPRPRPNKRPRP
b2
18) RRIRNRPPRLPRPRPRPMGKPRP
b0
19) RRIRVRPPRLPRPRPRPKYHPRP
b0
20) RRIRIRPPRLPRPRPRPCRSPRP
b0
21) RRIRFRPPRLPRPRPRPDCQPRP
b1
22) RRIRNRPPRLPRPRPRPAAVPRP
b1
23) RRIRDRPPRLPRPRPRPMPKPRP
b1
24) RRIRKRPPRLPRPRPRPETLPRP
b1
25) RRIRDRPPRLPRPRPRPMPPPRP
b2
26) RRIRSRPPRLPRPRPRPTAFPRP
b2
27) RRIRQRPPRLPRPRPRPCGCPRP
b1
28) RRIRQRPPRLPRPRPRPQEMPRP
b0
29) RRIRARPPRLPRPRPRPQQHPRP
b2
30) RRIRSRPPRLPRPRPRPLYPPRP
b0
31) RRIRYRPPRLPRPRPRPNSSPRP
b1
32) RRIRHRPPRLPRPRPRPNQHPRP
b0

----------
- Test system: Escherichia coli TOP10
- assayComment: shrunken log2 fold change of peptide-encoding DNA abundance (4.5 h post-induction vs induction); higher = less antimicrobial activity (less host growth inhibition)
- setupConditions: time post-induction: 4.5 h; library: site-saturation at positions 5, 18, 19, 20
Binary call on shrunken log2 fold change: 1 from -0.01 upward, 0 beneath that.

1. RRIRCRPPRLPRPRPRPGEMPRP
1
2. RRIRGRPPRLPRPRPRPPHEPRP
1
3. RRIRKRPPRLPRPRPRPSEVPRP
0
4. RRIRNRPPRLPRPRPRPNKWPRP
0
5. RRIRYRPPRLPRPRPRPVIAPRP
0
6. RRIRHRPPRLPRPRPRPSVQPRP
0
7. RRIRTRPPRLPRPRPRPFIVPRP
0
8. RRIRERPPRLPRPRPRPHFAPRP
0
9. RRIRERPPRLPRPRPRPWIHPRP
1
10. RRIRERPPRLPRPRPRPTQIPRP
1
11. RRIRGRPPRLPRPRPRPQWWPRP
1
12. RRIRTRPPRLPRPRPRPQCWPRP
0
13. RRIRMRPPRLPRPRPRPPPYPRP
1
14. RRIRWRPPRLPRPRPRPETKPRP
1
15. RRIRQRPPRLPRPRPRPYQDPRP
1
16. RRIRYRPPRLPRPRPRPHDQPRP
0
17. RRIRCRPPRLPRPRPRPLYLPRP
0
18. RRIRGRPPRLPRPRPRPAQMPRP
1
19. RRIRQRPPRLPRPRPRPSGDPRP
1
20. RRIRDRPPRLPRPRPRPWVLPRP
1
21. RRIRTRPPRLPRPRPRPDGLPRP
1
22. RRIRIRPPRLPRPRPRPYWYPRP
0
23. RRIRSRPPRLPRPRPRPCVAPRP
1
24. RRIRYRPPRLPRPRPRPQVSPRP
0
25. RRIRVRPPRLPRPRPRPYMEPRP
0
26. RRIRKRPPRLPRPRPRPENQPRP
1
27. RRIRGRPPRLPRPRPRPSKCPRP
0
28. RRIRKRPPRLPRPRPRPRDVPRP
1
29. RRIRCRPPRLPRPRPRPKMAPRP
1
30. RRIRTRPPRLPRPRPRPQSYPRP
0
31. RRIRDRPPRLPRPRPRPKDEPRP
1
32. RRIRHRPPRLPRPRPRPRGQPRP
0

----------
- Test system: Escherichia coli TOP10
- assayComment: shrunken log2 fold change of peptide-encoding DNA abundance (4.5 h post-induction vs induction); higher = less antimicrobial activity (less host growth inhibition)
- setupConditions: time post-induction: 4.5 h; library: site-saturation at positions 5, 18, 19, 20
This listing pairs sequences with measured shrunken log2 fold change.
reportedMetric: shrunken log2 fold change

1. RRIRKRPPRLPRPRPRPTAWPRP
1.13
2. RRIRDRPPRLPRPRPRPLSQPRP
0.483
3. RRIRKRPPRLPRPRPRPPVYPRP
0.387
4. RRIRLRPPRLPRPRPRPANGPRP
0.115
5. RRIRQRPPRLPRPRPRPNKNPRP
-0.335
6. RRIRPRPPRLPRPRPRPFCEPRP
0.0972
7. RRIRIRPPRLPRPRPRPGIVPRP
-0.399
8. RRIRMRPPRLPRPRPRPIIMPRP
-0.46
9. RRIRYRPPRLPRPRPRPRVCPRP
0.0157
10. RRIRDRPPRLPRPRPRPLFTPRP
0.0222
11. RRIRGRPPRLPRPRPRPMGNPRP
0.124
12. RRIRRRPPRLPRPRPRPLHCPRP
0.0886
13. RRIRARPPRLPRPRPRPGTPPRP
0.642
14. RRIRARPPRLPRPRPRPSRRPRP
0.297
15. RRIRFRPPRLPRPRPRPPMLPRP
0.638

----------
- System: Escherichia coli TOP10
- assayComment: shrunken log2 fold change of peptide-encoding DNA abundance (4.5 h post-induction vs induction); higher = less antimicrobial activity (less host growth inhibition)
- setupConditions: time post-induction: 4.5 h; library: site-saturation at positions 5, 18, 19, 20
This listing pairs sequences with measured shrunken log2 fold change.
reportedMetric: shrunken log2 fold change

1) RRIRIRPPRLPRPRPRPDRDPRP
-0.0646
2) RRIRGRPPRLPRPRPRPCQFPRP
0.33
3) RRIRARPPRLPRPRPRPACCPRP
0.658
4) RRIRVRPPRLPRPRPRPFMPPRP
-0.355
5) RRIRTRPPRLPRPRPRPNNKPRP
-0.474
6) RRIRFRPPRLPRPRPRPHDQPRP
0.0225
7) RRIRDRPPRLPRPRPRPIFYPRP
0.0295
8) RRIRIRPPRLPRPRPRPYYWPRP
-0.449

----------
- Tested on: Escherichia coli TOP10
- assayComment: shrunken log2 fold change of peptide-encoding DNA abundance (4.5 h post-induction vs induction); higher = less antimicrobial activity (less host growth inhibition)
- setupConditions: time post-induction: 4.5 h; library: site-saturation at positions 5, 18, 19, 20
reportedMetric: shrunken log2 fold change

1) RRIRMRPPRLPRPRPRPEITPRP
3.07
2) RRIRDRPPRLPRPRPRPHFIPRP
-0.0922
3) RRIRRRPPRLPRPRPRPMLEPRP
0.0718
4) RRIRERPPRLPRPRPRPFEEPRP
-0.217
5) RRIRIRPPRLPRPRPRPMYHPRP
-0.839
6) RRIRVRPPRLPRPRPRPWYVPRP
-0.971
7) RRIRFRPPRLPRPRPRPCWIPRP
-0.354
8) RRIRVRPPRLPRPRPRPPDQPRP
0.124
9) RRIRDRPPRLPRPRPRPQHAPRP
0.044
10) RRIRERPPRLPRPRPRPMIGPRP
0.015
11) RRIRYRPPRLPRPRPRPSWCPRP
-0.0502
12) RRIRQRPPRLPRPRPRPRHVPRP
-0.14
13) RRIRIRPPRLPRPRPRPCQQPRP
-0.0169
14) RRIRTRPPRLPRPRPRPIFFPRP
0.0107
15) RRIRYRPPRLPRPRPRPPHWPRP
0.203

----------
- Test system: Escherichia coli TOP10;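 further: peptides expressed intracellularly from a pBAD plasmid library in pooled LB shake-flask culture, induced with 0.3% L-arabinose, DNA abundance read by NGS, three biological replicates, DESeq2 with apeglm shrinkage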
- assayComment: shrunken log2 fold change of peptide-encoding DNA abundance (4.5 h post-induction vs induction); higher = less antimicrobial activity (less host growth inhibition)
- setupConditions: time post-induction: 4.5 h; library: site-saturation at positions 5, 18, 19, 20
reportedMetric: shrunken log2 fold change

1) RRIRCRPPRLPRPRPRPCLDPRP
0.11
2) RRIRLRPPRLPRPRPRPFTNPRP
0.0104
3) RRIRFRPPRLPRPRPRPLHIPRP
-0.7
4) RRIRERPPRLPRPRPRPMRVPRP
0.501
5) RRIRARPPRLPRPRPRPMEKPRP
-0.00226
6) RRIRGRPPRLPRPRPRPSILPRP
1.03
7) RRIRHRPPRLPRPRPRPEKQPRP
-0.0365
8) RRIRHRPPRLPRPRPRPIKWPRP
0.126
9) RRIRGRPPRLPRPRPRPRSYPRP
0.288
10) RRIRSRPPRLPRPRPRPTACPRP
0.249
11) RRIRWRPPRLPRPRPRPRMDPRP
0.211
12) RRIRTRPPRLPRPRPRPIQEPRP
0.0124
13) RRIRQRPPRLPRPRPRPRYRPRP
-0.419
14) RRIRMRPPRLPRPRPRPIHKPRP
0.0536
15) RRIRYRPPRLPRPRPRPAMNPRP
-0.796
